Tested on: 292921-168-R-J2-PDC spheroids with HUVEC/MSC, viability
procedureSummary: Anticancer human tumor 292921-168-R-J2-PDC patient-derived pancreatic carcinoma cell line growth inhibition [TAK]
experimentalParameters: second compound 0.3 µM; first compound 0.316 µM; stronger effect = lower value
experimentalReadout: viability, T/C (%)
Write it as a number; the unit % goes unstated.

Output viability, T/C of Cc1nc(NC(=O)N2CCCC2C(N)=O)sc1-c1ccnc(C(C)(C)C(F)(F)F)c1 (centres undefined) + CC(C)NCC(C(=O)N1CCN(c2ncnc3c2C(C)CC3O)CC1)c1ccc(Cl)cc1
47.2

Return viability, T/C for the following molecule: COc1c(OCCCN2CCOCC2)ccc2c3n(c(=NC(=O)c4cnc(N)nc4)nc12)CCN3 + CC(C)NCC(C(=O)N1CCN(c2ncnc3c2C(C)CC3O)CC1)c1ccc(Cl)cc1
10.2

Kindly indicate its recorded viability, T/C. Item: CC(C)(C)c1nc(-c2cccc(NS(=O)(=O)c3c(F)cccc3F)c2F)c(-c2ccnc(N)n2)s1 + CC(C)NCC(C(=O)N1CCN(c2ncnc3c2C(C)CC3O)CC1)c1ccc(Cl)cc1
88.7

Specify viability, T/C for CCCS(=O)(=O)Nc1ccc(F)c(C(=O)c2c[nH]c3ncc(-c4ccc(Cl)cc4)cc23)c1F + CC(C)NCC(C(=O)N1CCN(c2ncnc3c2C(C)CC3O)CC1)c1ccc(Cl)cc1 and stop.
109

---

Tested on: 292921-168-R-J2-PDC spheroids with HUVEC/MSC, viability
procedureSummary: Anticancer human tumor 292921-168-R-J2-PDC cell line growth inhibition [TAK];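 further: spheroids exposed to drugs for seven days before readout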
experimentalParameters: second compound 0.949 µM; first compound 0.000316 µM; stronger effect = lower value
Consider the following compounds; for each one, report its viability, T/C.
Number in %, nothing else.

Give measured viability, T/C for COC1CC2CCC(C)C(O)(O2)C(=O)C(=O)N2CCCCC2C(=O)OC(C(C)CC2CCC(OCCO)C(OC)C2)CC(=O)C(C)C=C(C)C(O)C(OC)C(=O)C(C)CC(C)C=CC=CC=C1C (centres undefined) + CC(C)NCC(C(=O)N1CCN(c2ncnc3c2C(C)CC3O)CC1)c1ccc(Cl)cc1 (292921-168-R-J2-PDC spheroids with HUVEC/MSC, viability).
65.7

Specify the recorded viability, T/C for CC(C)CC(NC(=O)C(Cc1ccccc1)NC(=O)c1cnccn1)B(O)O (centres undefined) + CC(C)NCC(C(=O)N1CCN(c2ncnc3c2C(C)CC3O)CC1)c1ccc(Cl)cc1 , system: 292921-168-R-J2-PDC spheroids with HUVEC/MSC, viability.
83.5

Write viability, T/C of CC(C)CC(NC(=O)CNC(=O)c1cc(Cl)ccc1Cl)B1OC(=O)CC(CC(=O)O)(C(=O)O)O1 (centres undefined) + CC(C)NCC(C(=O)N1CCN(c2ncnc3c2C(C)CC3O)CC1)c1ccc(Cl)cc1 ; system used: 292921-168-R-J2-PDC spheroids with HUVEC/MSC, viability
84.6

Would you please give the reported viability, T/C of CC(C)n1nc(-c2ccc3oc(N)nc3c2)c2c(N)ncnc21 + CC(C)NCC(C(=O)N1CCN(c2ncnc3c2C(C)CC3O)CC1)c1ccc(Cl)cc1 with 292921-168-R-J2-PDC spheroids with HUVEC/MSC, viability?
81.6

---

Exercise: for every item that follows, state its recorded viability, T/C.
Tested on: 292921-168-R-J2-PDC spheroids with HUVEC/MSC, viability
procedureSummary: Anticancer human tumor 292921-168-R-J2-PDC cell line growth inhibition [TAK];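 further: spheroids exposed to drugs for seven days before readout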
experimentalParameters: second compound 30 µM; first compound 1 µM; stronger effect = lower value

Find the measured viability, T/C of CC(C)(C)c1nc(-c2cccc(NS(=O)(=O)c3c(F)cccc3F)c2F)c(-c2ccnc(N)n2)s1 + CC(C)NCC(C(=O)N1CCN(c2ncnc3c2C(C)CC3O)CC1)c1ccc(Cl)cc1 with 292921-168-R-J2-PDC spheroids with HUVEC/MSC, viability as test system.
35.6%

Provide viability, T/C, recorded with 292921-168-R-J2-PDC spheroids with HUVEC/MSC, viability, of CCCS(=O)(=O)Nc1ccc(F)c(C(=O)c2c[nH]c3ncc(-c4ccc(Cl)cc4)cc23)c1F + CC(C)NCC(C(=O)N1CCN(c2ncnc3c2C(C)CC3O)CC1)c1ccc(Cl)cc1
49.2%

Jot down viability, T/C (292921-168-R-J2-PDC spheroids with HUVEC/MSC, viability) of Cc1nc(NC(=O)N2CCCC2C(N)=O)sc1-c1ccnc(C(C)(C)C(F)(F)F)c1 (centres undefined) + CC(C)NCC(C(=O)N1CCN(c2ncnc3c2C(C)CC3O)CC1)c1ccc(Cl)cc1 .
16.4%

Enter recorded viability, T/C with 292921-168-R-J2-PDC spheroids with HUVEC/MSC, viability for COc1c(OCCCN2CCOCC2)ccc2c3n(c(=NC(=O)c4cnc(N)nc4)nc12)CCN3 + CC(C)NCC(C(=O)N1CCN(c2ncnc3c2C(C)CC3O)CC1)c1ccc(Cl)cc1 here.
7.15%
